- Experimental Protocol: Intrinsic Clearance in mouse liver microsomes
- Format: ADME, Microsome
- Test Settings: read-out: CLH
Task for the reader: assign each of the following compounds its reported CLint scaled.
Numbers only, in mL/min/kg.

Below are worked cases with known answers.
Query (compound): "C[C@H](CN1CCC[C@@H]1C)NC(=O)c1ccc(-c2noc(C(F)(F)F)n2)cc1" ; field requested: CLint scaled
86

Given the compound "O=C(NCCN1CCCC1)c1ccc(-c2noc(C(F)(F)F)n2)cc1" , what is its reported CLint scaled?
76

Query (compound): "C[C@H](CN1CCC(F)CC1)NC(=O)c1ccc(-c2noc(C(F)(F)F)n2)cc1" ; field requested: CLint scaled
214

Dear colleague, I am looking for the recorded CLint scaled of the following compound: "C[C@H](CN1CCCCCC1)NC(=O)c1ccc(-c2noc(C(F)(F)F)n2)cc1"
128

Others:
Which CLint scaled is reported for this compound? "C[C@H](CN1CCCC(C)(C)C1)NC(=O)c1ccc(-c2noc(C(F)(F)F)n2)cc1"
1290
